experiment: inhibition of 3D7 malaria parasite growth – strain 3D7 (AID 2306);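 note: 0% = DMSO wells and 100% = chloroquine plus artemisinin control wells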; conditions: P. falciparum 3D7 erythrocytic growth, LDH absorbance, 72 h; at 2 µM; hits give high values
Active and inactive are the calls of the source. The rule behind the calls is not given here.
Recorded measurements of growth inhibition, one per entry

                                   molecule  measured_property  value_observed
0            CN(C)C(=O)CC(=O)NCc1cccc(Cl)c1  growth inhibition    99% (active)
1  CN1CCCC(CN2CCN(Cc3ccc(-c4ccc(-c5nc6ccccc6[nH]5)s4)cc3)CC2)C1 (stereo not given)  growth inhibition   100% (active)
2  CCC(C)c1cnc2nc(N)nc(N)c2c1C (stereo not given)  growth inhibition    97% (active)
3  CCCCCC(C)NC[C@@H](O)[C@H](Cc1ccccc1)NC(=O)c1cc(NCC)cc(N2CCCCS2(=O)=O)c1 (stereo not given in full)  growth inhibition    98% (active)

Proceed to the following item.
Request: Record request: growth inhibition value, item O=C(NCCCCN1CCN(c2nsc3ccccc23)CC1)c1ccccc1C(=O)NCCCCN1CCN(c2nsc3ccccc23)CC1
Result: 100% (active)
